This section presents molecules with their documented GFP response vs DMSO values.
Assay summary: TOR pathway LAP4-GFP level changes – S. cerevisiae, multiplex flow cytometry, primary screen (AID 1873)
Condition summary: S. cerevisiae LAP4-GFP expression, 3 h, at 10 µM, hits give high values
Records with an inconclusive call do not appear.
A number alone suffices; assume %.

q: Param item = COc1ccc(NS(=O)(=O)c2ccc(N)cc2)nn1 ; retrieve measured GFP response vs DMSO.
a: 120

q: Entry C[C@H]([C@@H](N)C(=O)N[C@@H](C(=O)O)[C@@H]1O[C@H](n2ccc(=O)[nH]c2=O)[C@@H](O)[C@H]1O)[C@@H](O)c1ccc(O)cn1 please
a: 82.5

q: Entry CC(=O)Nc1nnc(S(N)(=O)=O)s1 please
a: 88.1

q: Entry NCc1ccccc1COc1ccccc1 please
a: 117

q: Entry CC(C)=CCCC1=CCC2C(=O)NNC(=O)C2C1 (configuration not stated) please
a: 99.9

q: Entry O=C1CCc2cc(OCCCCc3nnnn3C3CCCCC3)ccc2N1 please
a: 85.3

q: Entry COc1cc(CNCc2ccc(OC)c(OC)c2OC)cc(OC)c1 please
a: 104

q: Entry COc1cc2c(cc1OC)CN(Cc1ccc(C)s1)CC2 please
a: 88.1

q: Entry COc1ccc(C(CC(=O)N2CCOCC2)C(C)C)cc1 (configuration not stated) please
a: 118

q: Entry COC(=O)c1ccc(-c2ncc(-c3cccc4ccccc34)o2)cc1 please
a: 125

q: Entry CC(=O)N(CCC(Cc1ccccc1)c1ccc2c(c1)OCO2)Cc1ccc(Cl)cc1 (configuration not stated) please
a: 79.2

---

This section presents compounds with their documented GFP response vs DMSO values.
Assay summary: TOR pathway LAP4-GFP level changes – S. cerevisiae, multiplex flow cytometry, primary screen (AID 1873)
Condition summary: S. cerevisiae LAP4-GFP expression, 3 h, at 10 µM, hits give high values
Inconclusive results are not listed.
A number alone suffices; assume %.

q: Param item = CC(N=C(NC#N)Nc1ccncc1)C(C)(C)C (stereo not given) ; retrieve measured GFP response vs DMSO.
a: 99.1

q: Entry CCCCCC#CCC#CCC#CCC#CCCCC(=O)O please
a: 106

q: Entry O=C(O)C(O)c1ccccc1 (stereo not given) please
a: 99.1

---

This section presents molecules with their documented percent of DMSO control GFP values.
Assay summary: rapamycin-like changes in RPL19A-GFP expression – cell-based, S. cerevisiae, multiplex flow cytometry, primary screen (AID 1862);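 further: lower values mimic rapamycin by blocking the RPL19A rise seen in DMSO cells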
Condition summary: S. cerevisiae RPL19A-GFP strain, flow cytometry fluorescence, 3 h; at 10 µM; hits give low values
Results filed as inconclusive are left out.
A number alone suffices; assume %.

q: Param item = Cc1ccccc1C(=O)Oc1ccc(Sc2ccc(O)cc2)cc1 ; retrieve measured percent of DMSO control GFP.
a: 103

q: Entry O=C(NCC1CCCO1)c1ccc(OC2CCN(C(=O)C3CC3)CC2)cc1 (stereo unspecified) please
a: 98.2

q: Entry COc1ccccc1OS(=O)(=O)c1ccc(NC(C)=O)cc1 please
a: 87.1

---

Assay target: ATP-binding cassette sub-family B member 6 (Homo sapiens) (UniProt Q9NP58)
Sequence (Q9NP58 whole entry, looked up): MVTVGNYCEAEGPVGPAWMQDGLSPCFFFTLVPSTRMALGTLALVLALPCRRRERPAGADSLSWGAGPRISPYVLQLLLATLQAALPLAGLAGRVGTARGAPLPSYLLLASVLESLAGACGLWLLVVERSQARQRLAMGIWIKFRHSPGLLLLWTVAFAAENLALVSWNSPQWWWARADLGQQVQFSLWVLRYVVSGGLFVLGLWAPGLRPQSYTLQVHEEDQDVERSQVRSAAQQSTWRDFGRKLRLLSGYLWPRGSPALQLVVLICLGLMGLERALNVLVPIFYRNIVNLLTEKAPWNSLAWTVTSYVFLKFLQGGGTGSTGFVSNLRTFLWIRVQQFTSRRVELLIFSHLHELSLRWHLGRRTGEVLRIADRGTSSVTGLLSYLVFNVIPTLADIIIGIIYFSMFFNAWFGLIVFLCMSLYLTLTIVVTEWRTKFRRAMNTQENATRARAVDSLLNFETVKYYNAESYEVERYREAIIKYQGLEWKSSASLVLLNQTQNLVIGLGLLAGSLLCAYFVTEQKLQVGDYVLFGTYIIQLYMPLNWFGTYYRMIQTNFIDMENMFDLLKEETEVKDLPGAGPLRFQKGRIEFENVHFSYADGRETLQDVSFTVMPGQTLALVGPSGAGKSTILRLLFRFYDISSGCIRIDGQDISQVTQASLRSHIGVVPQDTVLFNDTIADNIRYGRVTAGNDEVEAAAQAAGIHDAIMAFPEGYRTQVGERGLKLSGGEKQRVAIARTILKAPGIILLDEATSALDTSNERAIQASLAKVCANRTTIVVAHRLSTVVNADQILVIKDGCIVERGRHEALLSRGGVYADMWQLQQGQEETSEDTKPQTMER
Assay summary: blockers of ABCB6-driven porphyrin uptake – K562-ABCB6 cells, flow cytometry, validation set, pilot screen (AID 588550);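 further: 0% = DMSO wells and 100% = benzethonium chloride 70 µM positive control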
Condition summary: K562-ABCB6 porphyrin accumulation, 1 h, at 10 µM, hits give high values
This section presents molecules with their documented inhibition values.
A number alone suffices; assume %.

O=C(O)c1ccc(C(=O)C(=O)c2ccccc2)cc1
-10
c1ccc(Nc2ccccn2)nc1
4
COc1ccccc1C(O)c1nccn1C (configuration not stated)
11

q: Param item = CCCNCC(O)COc1ccccc1C(=O)CCc1ccccc1 (configuration not stated) ; retrieve measured inhibition.
a: -1

q: Entry CN(C)[C@@H]1C(=O)C(C(N)=O)=C(O)[C@@]2(O)C(=O)C3=C(O)c4c(O)ccc(Cl)c4[C@@H](O)[C@H]3C[C@@H]12 please
a: -10

q: Entry CCOc1ccc2[nH]c3c(=O)n(CCc4ccc(OC)cc4)cnc3c2c1 please
a: 5

q: Entry Cc1nc(C2CC(=O)OC23CCCCC3)cs1 (configuration not stated) please
a: 7

q: Entry CC(C)C(CCN1C(=O)CCC1=O)C1CCOC(C)(C)C1 (configuration not stated) please
a: 10

q: Entry C[N+](C)(C)CCOP(=O)([O-])OC[C@H](O)CO please
a: 22

q: Entry COc1ccc(C(=O)NCc2cccnc2)cc1 please
a: 6

q: Entry CC(C)(C)n1c(=O)[nH]c2c(c1=O)CCC2 please
a: -3

q: Entry COc1ccccc1OCC(O)COC(N)=O (configuration not stated) please
a: 9

q: Entry CCC(C(=O)Nc1ccc2c(c1)OCCO2)c1ccccc1 (configuration not stated) please
a: -7

---

Tested on: anti-desmoglein-3 scFv antibody binding to human DSG3
Assay summary: blockers of pathogenic pemphigus antibody–desmoglein-3 binding – biochemical, validation compound set, bead-based, flow cytometry, pilot screen (AID 588368);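 further: signal is the median channel fluorescence of bead-bound GFP antibody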
Condition summary: Protein G beads, DSG3-Fc, scFv-GFP binding, at 10 µM, hits give low values
Activity calls are given as the source filed them.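 How the source made its calls: active means binding below the plate cutoff, the plate median minus 3 SD, with a reading above zero; inconclusive means below the plate cutoff but reading exactly zero; inactive means the rest.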
Measure: binding (% of control)

Known results for compounds:
CCOC(=O)C1C2C=CC3(CN(c4ccc(Cl)c(F)c4)C(=O)C13)O2 (configuration not stated)
100% (inactive)
Cc1[nH]c2ccccc2c1/C=C/c1nc2ccccc2c(=O)n1CCO
106% (inactive)
Cc1cccc(N2CCN(C(=S)c3ccccc3)CC2)c1
95.3% (inactive)
COc1cc(CNCCc2c[nH]c3ccccc23)cc(Cl)c1OCC(N)=O
99.9% (inactive)
CC(=O)c1cccc2c(O)c(C3=Nc4ccccc4C3=O)[nH]c12
103% (inactive)

q: Param item = COc1cc(CC(=O)NCCc2ccc(S(N)(=O)=O)cc2)cc(OC)c1OC ; retrieve measured binding (% of control).
a: 114% (inactive)

q: Entry O=C(c1ccc(Cl)cc1)C1CCCN(Cc2ccc(Oc3ncccn3)cc2)C1 (configuration not stated) please
a: 106% (inactive)

q: Entry CCCCCC#CCC#CCC#CCC#CCCCC(=O)O please
a: 90.5% (inactive)

q: Entry COc1ccc2c(=O)c(-c3cnn(-c4ccccc4)c3)c(C)oc2c1 please
a: 103% (inactive)

---

Assay summary: Nile Red efflux blockade in pump-expressing yeast – validation compound set, multiplex, phenotypic, pilot screen (AID 588506);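 further: Nile Red retained in cells so higher fluorescence means more efflux inhibition; 0 = negative control wells and 1 = enniatin B 25 µM full block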
Condition summary: S. cerevisiae pump-expressing triplex, Nile Red efflux flow cytometry; at 10 µM; hits give high values; the pumps come from Candida albicans
Sorting guide: entries reporting efflux inhibition (fraction of control) beneath -0.06 go in the label 1 pile, the rest go in the label 0 pile.

COC(=O)c1ccc(-c2ncc(-c3cccc4ccccc34)o2)cc1
label 0
COc1ccc(C2CC(c3c(O)cc(C)oc3=O)=NCCS2)c(OC)c1 (stereo unspecified)
label 0
COc1ccc(C2C(C(=O)c3ccco3)=C(O)C(=O)N2CC2CCCO2)cc1 (stereo unspecified)
label 0
CC12CN3CC(C)(CN(C1)C3c1ccc([N+](=O)[O-])o1)C2 (stereo unspecified)
label 1
C/C(=N\NC(=O)C1(C)CC1(Br)Br)c1ccc([N+](=O)[O-])cc1 (stereo unspecified)
label 1
O=C(c1ccc(Cl)cc1)C1CCCN(Cc2ccc(Oc3ncccn3)cc2)C1 (stereo unspecified)
label 1

q: Lab note: efflux inhibition (fraction of control) threshold -0.06. Does this compound come in strictly under it? CC(=O)Nc1nnc(S(N)(=O)=O)s1
a: label 0

q: Entry Nc1ccc2nc(Cc3ccccc3)[nH]c2c1 please
a: label 0

q: Entry COc1cc2nc(-c3ccccc3)nc(N3CCCC3)c2cc1OC please
a: label 1

q: Entry Cc1ccc2c(c1)c(C)cc(=O)n2CCC(=O)O please
a: label 1

---

This section presents molecules with their documented response values.
Assay target: Beta-2 adrenergic receptor (Homo sapiens) (UniProt P07550)
Sequence (P07550 whole entry, looked up): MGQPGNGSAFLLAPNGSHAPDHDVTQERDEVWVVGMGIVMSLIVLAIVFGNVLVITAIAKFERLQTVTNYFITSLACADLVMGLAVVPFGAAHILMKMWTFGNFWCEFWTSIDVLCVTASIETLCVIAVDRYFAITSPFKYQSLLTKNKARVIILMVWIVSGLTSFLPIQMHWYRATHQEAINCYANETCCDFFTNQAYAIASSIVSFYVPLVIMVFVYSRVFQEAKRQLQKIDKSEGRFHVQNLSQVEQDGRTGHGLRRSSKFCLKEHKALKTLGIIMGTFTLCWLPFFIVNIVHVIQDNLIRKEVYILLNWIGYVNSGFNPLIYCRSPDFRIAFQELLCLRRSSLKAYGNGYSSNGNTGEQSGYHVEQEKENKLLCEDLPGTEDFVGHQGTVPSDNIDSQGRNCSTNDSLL
Assay summary: agonist-induced loss of surface beta2AR – cell-based, FAP fluorogen, flow cytometry, validation set, pilot screen (AID 504459);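 further: agonist-driven loss of surface beta2AR via internalization measured by FAP dye flow cytometry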
Condition summary: Am2.2-beta2AR cells, at 10 µM, hits give high values
A number alone suffices; assume %.

q: Param item = CCN(CCCCCN(C)C)Cc1cc2ccccc2o1 ; retrieve measured response.
a: -3.86

q: Entry COc1ccc(CNCCC2(C(C)C)CCOC(C)(C)C2)cc1 (stereo unspecified) please
a: -6.71

q: Entry COc1cc2cc(C)nc(Cc3cccc4ccccc34)c2cc1OC please
a: 9.84

q: Entry Cc1ccc2c(c1)c(=O)c1c3n2CCN(C(=O)CCl)C3CC1 (stereo unspecified) please
a: -25.7

q: Entry O=C(O)CCC(=O)c1ccc(-c2ccccc2)cc1 please
a: 11.2

q: Entry COc1cc(CNc2nnnn2C)ccc1OCc1ccc(F)cc1Cl please
a: 15.7

q: Entry CC(C)C[C@H]1C(=O)N2CCC[C@H]2[C@]2(O)O[C@](NC(=O)[C@@H]3C=C4c5cccc6[nH]c(Br)c(c56)CC4N(C)C3)(C(C)C)C(=O)N12 (stereo partly specified) please
a: -5.85

q: Entry Nc1cc(-c2ccncc2)c[nH]c1=O please
a: 8.85

q: Entry OCCC1CN(Cc2ccccc2-c2ccco2)CCN1C1CCCC1 (stereo unspecified) please
a: -21.4

q: Entry Clc1ccc2c(c1)CCc1cccnc1C2=C1CCNCC1 please
a: 16.1

q: Entry Cc1ccc(S(=O)(=O)NC(=O)Nc2cc(C)ccc2F)cc1 please
a: -5.23
